- Subject Of Test: T1, Monomeric 8-histidine tagged human EGFRvIII extracellular domain (human, UniProt P00533 298-645)
- T1 construct: Analyte in all SPR assays; not shown: 8-histidine tag
- Procedure Text: SPR, captured by anti-mouse Fc, 37 C
- Procedure: To generate human antibodies against EGFRvIII, transgenic AlivaMab mice (Ablexis LLC, San Francisco, Calif.) were immunized with alternating schedule of paraformaldehyde-fixed rat glioblastoma cell line expressing EGFRvIII, F98-npEGFRvIII (American Type Culture Collection, Manassas, Va.) and peptides (SEQ ID NO: 227: […]) directed to the junction region in EGFRvIII. […] Affinity of anti-EGFRvIII antibodies towards human EGFRvIII was measured at 37° C.
What koff was measured for each of the following?
Expressed in s⁻¹, but write only the number.

[Q] Query (binder): 21E11 (antibody, V domains shown, Hybridoma supernatant (AlivaMab mouse); captured/detected via mouse Fc) VH: QVTLKESGPVLVKPTETLTLTCTVSGFSLSNVRMGVSWIRQPPGKALEWFAHIFSSDEKSIRRSLRSRLTLSKDTSKSQVVLTMTNMDPVDTATYYCARDSSNYEGYFDFWGQGTLVTVSS VL: DMVVTQSPATLSVSPGERATLSCRASQSVGSDLAWYQQPPGQSPRLLIYGASTRATGVPARFSGSGSGTDFTLTITSLESEDFAVYYCQQYNDWPFTFGPGTKVDIK ; field requested: koff
[A] 0.000632

[Q] Query (binder): 32A10 (antibody, V domains shown, Hybridoma supernatant (AlivaMab mouse); captured/detected via mouse Fc) VH: QVTLKESGPVLVKPTETLTLTCTVSGFSLSNARMGVSWIRQPPGKALEWLAHIFSTDEKSIRRSLRSRLTLSKDTSKSQVVLTMTNMDPVDTATYFCARDSSNYEGYFDYWGQGTLVTVSS VL: EVVMTQSPATLSVSPGERVTLSCRASQSVSSNFAWYQQRPGQAPRLLLYGATTRATGLPGRFSGSGSGTENILTISSLQSEDFAIYFCQQYKDWPFTFGPGSKVDIK ; field requested: koff
[A] 0.000626
